# Tested on: BT-549 breast
# assay-explanation: NCI-60 one-dose screen, 48 h (100 = growth as untreated, 0 = no growth, -100 = all killed)
# assay-setup: 10 µM unless noted
The panel holds about 83,000 compounds, 20% with a hit somewhere; the sample as a whole holds those more often. The source made the active and inactive calls. The calls were made as follows: active = growth percent below 10; inactive = the rest.
Item-by-item account of growth
experimental-endpoint: growth

| compound | system-tested | measured-result |
| --- | --- | --- |
| Nc1c(C(=O)Nc2ccccc2C(F)(F)F)sc2nc3c(cc12)CCC3 | BT-549 breast | 115% (inactive) |
| O=C(Nc1ccccc1)Nc1ncnc2c1ncn2-c1ccc(Cl)cc1 | BT-549 breast | 102% (inactive) |
| CCCCCOC(=O)c1c(C)[nH]c(/C=C2\N=C(c3ccc[nH]3)C=C2OC)c1C | BT-549 breast | 2.11% (active) |
| O=C(Nc1nc2cc(C(=O)N3CCN(C(c4ccccc4)c4ccccc4)CC3)ccc2o1)c1ccc(NC2CCCCC2)c([N+](=O)[O-])c1 | BT-549 breast | 83.4% (inactive) |
| COC1/C=C/OC2(C)Oc3c(C)c(O)c4c(O)c(c(/C=N/Nc5ccc([N+](=O)[O-])cc5[N+](=O)[O-])c(O)c4c3C2=O)NC(=O)C(C)=C/C=C/C(C)C(O)C(C)C(O)C(C)C(OC(C)=O)C1C (stereo not drawn) | BT-549 breast | 13.7% (inactive) |
| CC(=O)Oc1ccc(N2C(=O)C(Cl)=C(Nc3cccc(C(F)(F)F)c3)C2=O)cc1 | BT-549 breast | 85.8% (inactive) |
| Cc1ccc(Nc2cc(N)nc(N)n2)cc1Cl | BT-549 breast | 101% (inactive) |
| CC/C=C\C[C@H](O)C/C=C1/C(=O)C=C[C@@H]1C/C=C\CCCC(=O)N(C)C | BT-549 breast | -34.8% (active) |

---

Item-by-item account of growth
# Test system: NCI-H23 lung
# assay-explanation: NCI-60 one-dose screen, 48 h (100 = growth as untreated, 0 = no growth, -100 = all killed)
# assay-setup: 10 µM unless noted
The panel holds about 83,000 compounds, 20% with a hit somewhere; the sample as a whole holds those more often.

| cpd-smiles | system-tested | result-unit | growth |
| --- | --- | --- | --- |
| CC(=O)n1nc(C(=O)OC(C)(C)c2ccccc2)c2ccccc21 | NCI-H23 lung | % | 94.2 |
| O=C(Nc1ccc(OS(=O)(=O)c2ccc(F)cc2)cc1)C1CCCCCC1 | NCI-H23 lung | % | 83.6 |
| CC(=O)/C(=C\c1c(-c2ccccc2)[nH]c2ccccc12)S(C)(=O)=O | NCI-H23 lung | % | 33.7 |
| CC(=O)Oc1ccc(N2C(=O)C(Cl)=C(Nc3cccc(C(F)(F)F)c3)C2=O)cc1 | NCI-H23 lung | % | 100 |
| CN1C(=O)/C(=C\c2c(Cl)cccc2Cl)c2ccccc21 | NCI-H23 lung | % | 90.7 |
| COc1cc2ncnc(Nc3ccc(S(=O)(=O)Nc4cc(C)on4)cc3)c2cc1OCCCN1CCN(c2ccc(F)cc2)CC1 | NCI-H23 lung | % | 105 |
| CN(C)c1ccc(C(=O)OCCCCCCl)cc1 | NCI-H23 lung | % | 90.7 |
| CN1CCc2nc3sc(C(N)=O)c(N)c3c(-c3cccs3)c2C1 | NCI-H23 lung | % | 36.2 |
| COc1ccc(C2=C(Nc3ccc(C(=O)Nc4ccccc4)cc3)C(=O)N(C)C2=O)cc1 | NCI-H23 lung | % | 88.7 |
| Nc1n[nH]c2cccc(C#Cc3cccc(C(=O)Nc4cc(C(F)(F)F)cc(C(F)(F)F)c4)c3)c12 | NCI-H23 lung | % | 73.8 |
